Target: Human complement C1s enzyme (Homo sapiens, UniProt P09871)
Construct: purified from human serum, Complement Technology, Inc
Test: Human C1s enzyme assay
Conditions: human complement C1s enzyme 1.16 nM, substrate Z-L-Lys-SBzl, A405; read-out: IC50 (Stars)
REPORTED_METRIC: IC50

# count of solved cases: 5
1) C[C@@H](Nc1cnc(N2CCCC2)n(CC(=O)NCc2cc3cnccc3[nH]2)c1=O)c1ccc2oc3ccccc3c2c1 > 1 µM
2) C[C@@H](Nc1cnc(N2CCC3(CC2)OCCO3)n(CC(=O)NCc2cc3cnccc3[nH]2)c1=O)c1ccc2oc3ccccc3c2c1 < 0.1 µM
3) O=C(Cn1c(N2CCCCC2)cnc(N[C@H](CO)c2ccc3oc4ccccc4c3c2)c1=O)NCc1cc2cnccc2[nH]1 > 1 µM
4) O=C(Cn1c(-c2ccccc2)ncc(-c2ccccc2)c1=O)NCc1cc2cnccc2[nH]1 > 1 µM
5) C[C@@H](Nc1cnc(N2CC(O)C2)n(CC(=O)NCc2cc3cnccc3[nH]2)c1=O)c1ccc2oc3ccccc3c2c1 > 1 µM

For each entry beneath this line, provide reported IC50.
1. O=C(Cn1c(-c2ccccc2)ncc(NC(=O)c2ccc(C(=O)c3ccccc3)cc2)c1=O)NCc1cc2cnccc2[nH]1
2. O=C(Cn1c(-c2ccccc2)ncc(NCc2ccc(-c3ccccc3)s2)c1=O)NCc1cc2cnccc2[nH]1

**A:**
["< 0.1 µM", "< 0.1 µM"]

----------
Assign pIC50 to each entry below.
Biological target: Human complement C1s enzyme (Homo sapiens, UniProt P09871)
Construct: purified from human serum, Complement Technology, Inc
Sequence (P09871 438-688 limits assumed): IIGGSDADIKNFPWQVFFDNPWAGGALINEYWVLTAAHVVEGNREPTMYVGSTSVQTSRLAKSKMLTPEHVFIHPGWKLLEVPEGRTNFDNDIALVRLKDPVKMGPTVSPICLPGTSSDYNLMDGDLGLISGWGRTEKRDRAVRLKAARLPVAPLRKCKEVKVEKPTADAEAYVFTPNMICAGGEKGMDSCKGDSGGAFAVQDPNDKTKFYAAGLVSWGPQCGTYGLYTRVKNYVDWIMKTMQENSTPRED
Sequence (P09871 16-437 partner limits assumed): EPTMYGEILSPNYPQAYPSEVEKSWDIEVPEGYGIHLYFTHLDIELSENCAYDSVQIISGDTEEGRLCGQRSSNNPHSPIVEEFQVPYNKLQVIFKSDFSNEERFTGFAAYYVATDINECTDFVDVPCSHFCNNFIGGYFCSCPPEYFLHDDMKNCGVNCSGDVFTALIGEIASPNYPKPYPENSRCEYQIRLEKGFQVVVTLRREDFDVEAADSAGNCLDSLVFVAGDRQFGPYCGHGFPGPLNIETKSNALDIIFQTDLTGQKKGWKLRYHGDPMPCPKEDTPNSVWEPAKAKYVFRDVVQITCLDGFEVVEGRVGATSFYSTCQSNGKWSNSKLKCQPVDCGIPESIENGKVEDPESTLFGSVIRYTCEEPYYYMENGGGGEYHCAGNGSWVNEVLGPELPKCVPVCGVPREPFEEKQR
Test: Human C1s enzyme assay
Conditions: human complement C1s enzyme 1.16 nM, substrate Z-L-Lys-SBzl, A405; read-out: IC50 (Stars)
pIC50: −log10 of the molar value.

COMPOUND	pIC50
O=C(Cn1c(-c2ccccc2)ncc(NC(=O)c2ccc(-c3ccccc3)cc2)c1=O)NCc1cc2cnccc2[nH]1	> 7.00

Take each entry in turn and give its pIC50.
1. C[C@@H](Nc1cnc(-c2ccccc2)n(CC(=O)NCc2cc3cnccc3[nH]2)c1=O)c1ccc(-c2ccccc2F)cc1
2. O=C(Cn1c(-c2ccccc2)ncc(N2CCN(c3ccccc3)CC2)c1=O)NCc1cc2cnccc2[nH]1
3. O=C(Cn1c(-c2ccccc2)ncc(N2CC3CCC2C3)c1=O)NCc1cc2cnccc2[nH]1 (stereo not shown)
4. O=C(Cn1c(-c2ccc(F)c(F)c2)ncc(NC(=O)c2ccc(-c3ccccc3)cc2)c1=O)NCc1cc2cnccc2[nH]1
5. C[C@@H](Nc1ncc(N2CCNCC2)n(CC(=O)NCc2cc3cnccc3[nH]2)c1=O)c1ccc2oc3ccccc3c2c1
6. NS(=O)(=O)COc1ccc(-c2ncc(NCCCc3ccccc3)c(=O)n2CC(=O)NCc2cc3cnccc3[nH]2)cc1

**A:**
> 7.00
6.00 to 7.00
6.00 to 7.00
> 7.00
> 7.00
> 7.00
